target: UniProt O60674; assay: Inhibition of enzymatic JAK2 kinase activity (TR-FRET); assay type: biochemical; settings: read-out: IC50 JAK
Sequence (O60674 808-1132): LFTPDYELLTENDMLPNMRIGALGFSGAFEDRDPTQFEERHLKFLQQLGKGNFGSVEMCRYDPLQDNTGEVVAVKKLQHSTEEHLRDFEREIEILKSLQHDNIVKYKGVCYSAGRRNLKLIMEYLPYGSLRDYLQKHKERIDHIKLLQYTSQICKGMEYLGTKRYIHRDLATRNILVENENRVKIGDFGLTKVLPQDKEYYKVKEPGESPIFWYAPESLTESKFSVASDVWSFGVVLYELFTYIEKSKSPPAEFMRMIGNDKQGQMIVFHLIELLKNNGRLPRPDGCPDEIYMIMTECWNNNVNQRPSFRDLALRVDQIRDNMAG
Counter-ions that a name gives are not always drawn.
Reported property: IC50

The cases that follow already have their IC50 on record.
{"Compound": "N#CCC1CCN(c2nc(Nc3ccc(OCCCO)cc3)c3c(=O)[nH]ncc3n2)CC1 [Example 295]", "Subject of test": "UniProt O60674", "IC50": "< 50 nM"}
{"Compound": "CC1CCN(c2nc(Nc3ccc(OCCN4CCNCC4)cc3)c3c(=O)[nH]ncc3n2)CC1 [Example 156, hydrochloride]", "Subject of test": "UniProt O60674", "IC50": "< 100 nM"}

Requested field: IC50. Item: COc1ccc(-c2nc(Nc3ccc(CN4CCNCC4)cc3)c3c(=O)[nH]ncc3n2)cc1 [Example 41, hydrochloride]
> 100 nM

Sample O=C(O)CC1CCN(c2nc(Nc3ccc(CN4CCNCC4)cc3)c3c(=O)[nH]ncc3n2)CC1 [Example 43, hydrochloride] — what was its IC50?
< 100 nM

What IC50 value was documented for this compound, CN(C)CCN1CCN(c2ccc(Nc3nc(N4CCC(CC#N)CC4)nc4cn[nH]c(=O)c34)cc2)CC1 [Example 268] ?
< 50 nM

Find the recorded IC50 belonging to O=C(O)C1CC12CCN(c1nc(Nc3ccc(CN4CCNCC4)cc3)c3c(=O)[nH]ncc3n1)CC2 (stereo not drawn) [Example 25, hydrochloride] and report it.
< 100 nM

Give its IC50 value. Item: N#CCC1CCN(c2nc(Nc3ccc(CCN4CCN(CCO)CC4)cc3)c3c(=O)[nH]ncc3n2)CC1 [Example 212]
< 50 nM

Sample CC(C)(O)C(=O)N1CCN(CCOc2ccc(Nc3nc(N4CCCCCC4)nc4cn[nH]c(=O)c34)cc2)CC1 [Example 115] — what was its IC50?
< 50 nM

Can you share its IC50? I mean this compound: O=C(O)CC1CCN(Cc2ccc(Nc3nc(N4CCCCCC4)nc4cn[nH]c(=O)c34)cc2)CC1 [Example 77]
< 10 nM

Look up IC50 for this compound: O=C(O)C1CC12CCN(c1ccc(Nc3nc(N4CCCCCC4)nc4cn[nH]c(=O)c34)cn1)CC2 (stereo not drawn) [Example 134]
< 10 nM

Looking for the measured IC50 of N#CCC1CCN(c2nc(Nc3ccc(N4CCN(CC#N)CC4)cc3)c3c(=O)[nH]ncc3n2)CC1 [Example 207] , can you help?
< 10 nM

Using the record for CCN1CCN(c2ccc(Nc3nc(N4CCOCC4)nc4cn[nH]c(=O)c34)cc2)CC1 [Example 26] , report its IC50.
< 100 nM

Tell me the measured IC50 of N#CCC1CCN(c2nc(Nc3ccc(N4CCC(CCF)CC4)cc3)c3c(=O)[nH]ncc3n2)CC1 [Example 299] , please.
< 50 nM

Requested read-out: IC50. Entry: O=c1[nH]ncc2nc(N3CCCCCC3)nc(Nc3ccc4[nH]nnc4c3)c12 [Example 339]
< 50 nM

For the compound O=C(O)CC1CCN(c2ccc(Nc3nc(N4CCCCCC4)nc4cn[nH]c(=O)c34)cn2)CC1 [Example 108] , what IC50 is on record?
< 10 nM
